Task for the reader: assign each of the following variants its reported protein stability index.
B1: ZNF649 (parent)
chain: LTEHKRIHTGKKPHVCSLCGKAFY

Variants of: B1
protocol-details: protein stability index of a GFP-peptide fusion (GPS, HEK-293T) (PSI 1-6); higher = more stable;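 also: lentivirally expressed fusions sorted by FACS into six bins by GFP to DsRed ratio, PSI derived from sequencing read proportions per bin multiplied by bin number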
run-parameters: c terminus: a fixed tail appended
Numbers only.

{"mutation": "K12V", "readout": "protein stability index", "data-value": 3.42}
{"mutation": "K21G", "readout": "protein stability index", "data-value": 2.38}
{"mutation": "K11C", "readout": "protein stability index", "data-value": 2.43}
{"mutation": "F23M", "readout": "protein stability index", "data-value": 2.56}
{"mutation": "K21D", "readout": "protein stability index", "data-value": 2.72}

I have 5 variants here; please give me protein stability index for each one.
1. K11N
2. G10Y
3. F23A
4. E3C
5. K5T

[2.35, 2.45, 2.77, 2.38, 2.88]

I have 3 variants here; please give me protein stability index for each one.
1. H8F
2. H8V
3. T9W

1. 2.71
2. 2.18
3. 3.49

I have 8 variants here; please give me protein stability index for each one.
1. S17P
2. F23T
3. G20N
4. T2N
5. V15G
6. P13G
7. C16G
8. S17Y

1. 2.97
2. 2.32
3. 3.49
4. 2.32
5. 2.56
6. 2.48
7. 2.01
8. 2.11

I have 6 variants here; please give me protein stability index for each one.
1. S17Q
2. A22R
3. K11G
4. L18K
5. E3F
6. V15H

2.46
3.22
2.54
2.66
2.31
2.34
